system: SK-MES-1; experiment: relative viability (nuclei count vs DMSO), 5 days (fraction); higher = more cells survive; conditions: first compound 0.1265 µM
Known relative viability of a selection of compounds

Some solved cases for reference:
[[record]]
compound = "O=C(O)c1ccc(-c2c[nH]c3ncc(-c4ccccc4)cc23)cc1C1CCCC1 + C[C@]1(O)C[C@@H](c2nc(-c3ccc4ccc(-c5ccccc5)nc4c3)c3c(N)nccn32)C1 [Linsitinib] (partner 1 µM)"
measured_result = 1.09

[[record]]
compound = "O=C(O)c1ccc(-c2c[nH]c3ncc(-c4ccccc4)cc23)cc1C1CCCC1 + Cc1cc(Nc2cc(N3CCN(C)CC3)nc(Sc3ccc(NC(=O)C4CC4)cc3)n2)n[nH]1 [Tozasertib] (partner 0.1 µM)"
measured_result = 0.973


Now for another entry.
Looking up O=C(O)c1ccc(-c2c[nH]c3ncc(-c4ccccc4)cc23)cc1C1CCCC1 + Cc1nc(Nc2ncc(C(=O)Nc3c(C)cccc3Cl)s2)cc(N2CCN(CCO)CC2)n1 [Dasatinib] (partner 0.075 µM) , I see its relative viability listed as 0.384

###

test system: NCI-H647; assay: relative viability (nuclei count vs DMSO), 5 days (fraction); higher = more cells survive; settings: first compound 0.1265 µM
// values below are reported relative viability
Just the number, please, no unit attached.

[[record]]
compound = "O=C(O)c1ccc(-c2c[nH]c3ncc(-c4ccccc4)cc23)cc1C1CCCC1 + NC(=O)Nc1cc(-c2cccc(F)c2)sc1C(=O)N[C@H]1CCCNC1 [AZD7762] (partner 0.2 µM)"
measured_result = 0.55

[[record]]
compound = "O=C(O)c1ccc(-c2c[nH]c3ncc(-c4ccccc4)cc23)cc1C1CCCC1 + CS(=O)(=O)CCNCc1ccc(-c2ccc3ncnc(Nc4ccc(OCc5cccc(F)c5)c(Cl)c4)c3c2)o1 [Lapatinib] (partner 2 µM)"
measured_result = 1.12

[[record]]
compound = "O=C(O)c1ccc(-c2c[nH]c3ncc(-c4ccccc4)cc23)cc1C1CCCC1 + Cc1cc(Nc2cc(N3CCN(C)CC3)nc(Sc3ccc(NC(=O)C4CC4)cc3)n2)n[nH]1 [Tozasertib] (partner 0.1 µM)"
measured_result = 0.381


The value of relative viability measured for the compound O=C(O)c1ccc(-c2c[nH]c3ncc(-c4ccccc4)cc23)cc1C1CCCC1 + C[C@]1(O)C[C@@H](c2nc(-c3ccc4ccc(-c5ccccc5)nc4c3)c3c(N)nccn32)C1 [Linsitinib] (partner 1 µM) turned out to be 1.18

###

Listed below: relative viability values for each entry.
test system: NCI-H2228; assay: relative viability (nuclei count vs DMSO), 5 days (fraction); higher = more cells survive; conditions: first compound 0.03162 µM
Write no unit; give the number alone.

Example entries and their recorded answers appear below.
[[record]]
molecule = "NC(=O)Nc1cc(-c2cccc(F)c2)sc1C(=O)N[C@H]1CCCNC1 [AZD7762] + COc1cc2c(Oc3ccc(NC(=O)C4(C(=O)Nc5ccc(F)cc5)CC4)cc3F)ccnc2cc1OCCCN1CCOCC1 [Foretinib] (partner 0.25 µM)"
measured_result = 0.788

[[record]]
molecule = "NC(=O)Nc1cc(-c2cccc(F)c2)sc1C(=O)N[C@H]1CCCNC1 [AZD7762] + Cc1cc(Nc2cc(N3CCN(C)CC3)nc(Sc3ccc(NC(=O)C4CC4)cc3)n2)n[nH]1 [Tozasertib] (partner 0.1 µM)"
measured_result = 0.464


Data point: NC(=O)Nc1cc(-c2cccc(F)c2)sc1C(=O)N[C@H]1CCCNC1 [AZD7762] + CC(=O)Nc1cccc(-n2c(=O)n(C3CC3)c(=O)c3c(Nc4ccc(I)cc4F)n(C)c(=O)c(C)c32)c1 [Trametinib] (partner 0.02 µM) ; relative viability = 0.668

###

system: NCI-H1975; test: relative viability (nuclei count vs DMSO), 5 days (fraction); higher = more cells survive; conditions: first compound 0.08 µM
PARAMETER: relative viability
Please give only the number in your answer, with no unit.

[[record]]
molecule = "C=C1C(=O)O[C@@H](CCCCCCCC)[C@@H]1C(=O)O [C-75] + CS(=O)(=O)CCNCc1ccc(-c2ccc3ncnc(Nc4ccc(OCc5cccc(F)c5)c(Cl)c4)c3c2)o1 [Lapatinib] (partner 2 µM)"
measured_result = 0.839

[[record]]
molecule = "Oc1nc(-c2ccc(C(F)(F)F)cc2)nc2c1CSCC2 [XAV939] + Cc1nc(NC(=O)N2CCC[C@H]2C(N)=O)sc1-c1ccnc(C(C)(C)C(F)(F)F)c1 [Alpelisib] (partner 2 µM)"
measured_result = 0.619

[[record]]
molecule = "C=C1C(=O)O[C@@H](CCCCCCCC)[C@@H]1C(=O)O [C-75] + Nc1nc2[nH]cc(CCc3ccc(C(=O)N[C@@H](CCC(=O)O)C(=O)O)cc3)c2c(=O)[nH]1 [Pemetrexed] (partner 0.2 µM)"
measured_result = 0.281


Record C=C1C(=O)O[C@@H](CCCCCCCC)[C@@H]1C(=O)O [C-75] + CC1(C)CCC(c2ccc(Cl)cc2)=C(CN2CCN(c3ccc(C(=O)NS(=O)(=O)c4ccc(N[C@H](CCN5CCOCC5)CSc5ccccc5)c(S(=O)(=O)C(F)(F)F)c4)cc3)CC2)C1 [Navitoclax] (partner 0.5 µM) ; system NCI-H1975; relative viability = 0.983

Hey, NCI-H1975 data for Oc1nc(-c2ccc(C(F)(F)F)cc2)nc2c1CSCC2 [XAV939] + N=C(N)NC(=N)NCCc1ccccc1 [Phenformin] (partner 250 µM) : relative viability came out at 0.409

Short answer on NCI-H1975 for Oc1nc(-c2ccc(C(F)(F)F)cc2)nc2c1CSCC2 [XAV939] + CS(=O)(=O)N1CCN(Cc2cc3nc(-c4cccc5[nH]ncc45)nc(N4CCOCC4)c3s2)CC1 [Pictilisib] (partner 1 µM) , relative viability: 0.258

I looked up Oc1nc(-c2ccc(C(F)(F)F)cc2)nc2c1CSCC2 [XAV939] + CC1(C)CCC(c2ccc(Cl)cc2)=C(CN2CCN(c3ccc(C(=O)NS(=O)(=O)c4ccc(N[C@H](CCN5CCOCC5)CSc5ccccc5)c(S(=O)(=O)C(F)(F)F)c4)cc3)CC2)C1 [Navitoclax] (partner 0.5 µM) and its relative viability for NCI-H1975 was 1.08

Measured relative viability for this entry C=C1C(=O)O[C@@H](CCCCCCCC)[C@@H]1C(=O)O [C-75] + C[C@]1(O)C[C@@H](c2nc(-c3ccc4ccc(-c5ccccc5)nc4c3)c3c(N)nccn32)C1 [Linsitinib] (partner 1 µM) on NCI-H1975: 0.958

// returns relative viability for C=C1C(=O)O[C@@H](CCCCCCCC)[C@@H]1C(=O)O [C-75] + NC(=O)Nc1cc(-c2cccc(F)c2)sc1C(=O)N[C@H]1CCCNC1 [AZD7762] (partner 0.2 µM) with NCI-H1975; value = 0.771

###

system: NCI-H1651; experiment: relative viability (nuclei count vs DMSO), 5 days (fraction); higher = more cells survive; conditions: first compound 0.005 µM
Decide using relative viability alone. Strictly below 0.8: TRUE. Equal to or above 0.8: FALSE.

Sample answers from the record:
[[record]]
compound = "CC1(C)CCC(c2ccc(Cl)cc2)=C(CN2CCN(c3ccc(C(=O)NS(=O)(=O)c4ccc(N[C@H](CCN5CCOCC5)CSc5ccccc5)c(S(=O)(=O)C(F)(F)F)c4)cc3)CC2)C1 [Navitoclax] + COc1cc2c(Oc3ccc(NC(=O)C4(C(=O)Nc5ccc(F)cc5)CC4)cc3F)ccnc2cc1OCCCN1CCOCC1 [Foretinib] (partner 0.25 µM)"
target = "NCI-H1651"
label_value = "TRUE"

[[record]]
compound = "CC1(C)CCC(c2ccc(Cl)cc2)=C(CN2CCN(c3ccc(C(=O)NS(=O)(=O)c4ccc(N[C@H](CCN5CCOCC5)CSc5ccccc5)c(S(=O)(=O)C(F)(F)F)c4)cc3)CC2)C1 [Navitoclax] + C[C@@H](Oc1cc(-c2cnn(C3CCNCC3)c2)cnc1N)c1c(Cl)ccc(F)c1Cl [Crizotinib] (partner 1 µM)"
target = "NCI-H1651"
label_value = "FALSE"

[[record]]
compound = "CC1(C)CCC(c2ccc(Cl)cc2)=C(CN2CCN(c3ccc(C(=O)NS(=O)(=O)c4ccc(N[C@H](CCN5CCOCC5)CSc5ccccc5)c(S(=O)(=O)C(F)(F)F)c4)cc3)CC2)C1 [Navitoclax] + N=C(N)NC(=N)NCCc1ccccc1 [Phenformin] (partner 250 µM)"
target = "NCI-H1651"
label_value = "TRUE"


Incoming: API: query returns whether the compound falls strictly under 0.8 in relative viability. Query: CC1(C)CCC(c2ccc(Cl)cc2)=C(CN2CCN(c3ccc(C(=O)NS(=O)(=O)c4ccc(N[C@H](CCN5CCOCC5)CSc5ccccc5)c(S(=O)(=O)C(F)(F)F)c4)cc3)CC2)C1 [Navitoclax] + Cc1nc(Nc2ncc(C(=O)Nc3c(C)cccc3Cl)s2)cc(N2CCN(CCO)CC2)n1 [Dasatinib] (partner 0.075 µM)
Outgoing: TRUE

Incoming: # strict comparison: is reported relative viability < 0.8? input = CC1(C)CCC(c2ccc(Cl)cc2)=C(CN2CCN(c3ccc(C(=O)NS(=O)(=O)c4ccc(N[C@H](CCN5CCOCC5)CSc5ccccc5)c(S(=O)(=O)C(F)(F)F)c4)cc3)CC2)C1 [Navitoclax] + CS(=O)(=O)CCNCc1ccc(-c2ccc3ncnc(Nc4ccc(OCc5cccc(F)c5)c(Cl)c4)c3c2)o1 [Lapatinib] (partner 2 µM)
Outgoing: TRUE

Incoming: State whether 0.8 exceeds relative viability recorded for CC1(C)CCC(c2ccc(Cl)cc2)=C(CN2CCN(c3ccc(C(=O)NS(=O)(=O)c4ccc(N[C@H](CCN5CCOCC5)CSc5ccccc5)c(S(=O)(=O)C(F)(F)F)c4)cc3)CC2)C1 [Navitoclax] + COc1cccc2cc(-c3nc([C@H]4CC[C@H](C(=O)O)CC4)n4ncnc(N)c34)[nH]c12 [OSI-027] (partner 0.5 µM) .
Outgoing: TRUE

Incoming: Strictly below 0.8 in relative viability? CC1(C)CCC(c2ccc(Cl)cc2)=C(CN2CCN(c3ccc(C(=O)NS(=O)(=O)c4ccc(N[C@H](CCN5CCOCC5)CSc5ccccc5)c(S(=O)(=O)C(F)(F)F)c4)cc3)CC2)C1 [Navitoclax] + Cc1nc(NC(=O)N2CCC[C@H]2C(N)=O)sc1-c1ccnc(C(C)(C)C(F)(F)F)c1 [Alpelisib] (partner 2 µM)
Outgoing: FALSE

Incoming: # strict comparison: is reported relative viability < 0.8? input = CC1(C)CCC(c2ccc(Cl)cc2)=C(CN2CCN(c3ccc(C(=O)NS(=O)(=O)c4ccc(N[C@H](CCN5CCOCC5)CSc5ccccc5)c(S(=O)(=O)C(F)(F)F)c4)cc3)CC2)C1 [Navitoclax] + CS(=O)(=O)N1CCN(Cc2cc3nc(-c4cccc5[nH]ncc45)nc(N4CCOCC4)c3s2)CC1 [Pictilisib] (partner 1 µM)
Outgoing: TRUE

Incoming: Consider the compound CC1(C)CCC(c2ccc(Cl)cc2)=C(CN2CCN(c3ccc(C(=O)NS(=O)(=O)c4ccc(N[C@H](CCN5CCOCC5)CSc5ccccc5)c(S(=O)(=O)C(F)(F)F)c4)cc3)CC2)C1 [Navitoclax] + CCNC(=O)c1noc(-c2cc(C(C)C)c(O)cc2O)c1-c1ccc(CN2CCOCC2)cc1 [Luminespib] (partner 0.01 µM) . Is its relative viability strictly less than 0.8?
Outgoing: FALSE
